Reported IC50 is given for each of the following molecules.
target: full-length NS3/NS4A-2 (HCV NS3 protease) (Hepatitis C virus genotype 1a)
Construct: Recombinant E. coli or Baculovirus full-length NS3 was diluted to 3.33 μM with assay buffer; made in house; host or cells: E. coli or baculovirus (BV) expression system
Sequence (P27958 1027-1657): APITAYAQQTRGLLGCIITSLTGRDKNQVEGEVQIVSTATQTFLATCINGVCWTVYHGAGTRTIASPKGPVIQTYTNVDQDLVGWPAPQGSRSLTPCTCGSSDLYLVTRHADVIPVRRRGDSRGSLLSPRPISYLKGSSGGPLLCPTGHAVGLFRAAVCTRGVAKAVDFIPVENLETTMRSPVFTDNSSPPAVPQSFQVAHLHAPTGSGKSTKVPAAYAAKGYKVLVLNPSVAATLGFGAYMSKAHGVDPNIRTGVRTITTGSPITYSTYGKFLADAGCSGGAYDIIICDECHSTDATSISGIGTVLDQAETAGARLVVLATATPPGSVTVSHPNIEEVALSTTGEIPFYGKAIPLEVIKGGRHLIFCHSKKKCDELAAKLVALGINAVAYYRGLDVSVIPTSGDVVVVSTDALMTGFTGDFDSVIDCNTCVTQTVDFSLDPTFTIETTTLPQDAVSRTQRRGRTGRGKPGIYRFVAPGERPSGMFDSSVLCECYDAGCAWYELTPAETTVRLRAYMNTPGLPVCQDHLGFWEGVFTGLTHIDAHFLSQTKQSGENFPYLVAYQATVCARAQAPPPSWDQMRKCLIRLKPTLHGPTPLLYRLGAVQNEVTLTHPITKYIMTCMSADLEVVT
procedure text: NS3-NS4 protease assay / NS3 inhibition assay (RETS1 substrate, fluorescence kinetic read)
Assay type: biochemical
assay conditions: recombinant E. coli or Baculovirus full-length NS3 with NS4A-2; read-out: NS3-NS4 IC50

In the examples that follow, each entry is paired with its recorded IC50.
smiles representation: CC(C)(C)OC(=O)N[C@H]1CCCCC/C=C\[C@@H]2C[C@@]2(C(=O)NS(=O)(=O)Nc2cccnc2)NC(=O)[C@@H]2CCCN2C1=O
reported measurement: > 10 µM
//
smiles representation: CC(C)(C)OC(=O)N[C@H]1CCCCC/C=C\[C@@H]2C[C@@]2(C(=O)NS(=O)(=O)c2cc(Cl)sc2Cl)NC(=O)[C@@H]2CCCN2C1=O
reported measurement: < 10 µM
//
smiles representation: CC(C)(C)OC(=O)N[C@H]1CCCCC/C=C\[C@@H]2C[C@@]2(C(=O)NS(=O)(=O)NCCc2cccc(Cl)c2)NC(=O)[C@@H]2CCCN2C1=O
reported measurement: > 10 µM
//
smiles representation: CN1CCN(S(=O)(=O)NC(=O)[C@@]23C[C@H]2/C=C\CCCCC[C@H](NC(=O)OC(C)(C)C)C(=O)N2CCC[C@H]2C(=O)N3)CC1
reported measurement: < 1 µM
//
smiles representation: CCOC(=O)[C@@]12C[C@H]1/C=C\CCCCC[C@H](NC(=O)OC(C)(C)C)C(=O)N1C[C@H](OC(=O)N3Cc4ccc(OCCNC(C)C)cc4C3)C[C@H]1C(=O)N2
reported measurement: < 10 µM

Proceed to the following item.
Q: Supply IC50 measured with full-length NS3/NS4A-2 (HCV NS3 protease) (Hepatitis C virus genotype 1a) for `O=C1N[C@]2(C(=O)NS(=O)(=O)C3CC3)C[C@H]2/C=C\CCCCC[C@H](Nc2c(N3CCCCC3)c(=O)c2=O)C(=O)N2C[C@H](OC(=O)N3Cc4cccc(F)c4C3)C[C@@H]12` .
A: < 0.1 µM
